The measurements presented in this section are drawn from patent US9290496B2.

- system_name: EGFR del/T790M (PC9-DRH) (Homo sapiens, UniProt P00533, DEL746-750/T790M)
- Construct: detects endogenous levels of phospho-EGF Receptor (Tyr1068) protein; endogenous in cells; host or cells: PC9-DRH (dacomitinib-resistant derivative of PC9, generated in house)
- Sequence (P00533 with tags, fused parts or gaps DEL746-750/T790M): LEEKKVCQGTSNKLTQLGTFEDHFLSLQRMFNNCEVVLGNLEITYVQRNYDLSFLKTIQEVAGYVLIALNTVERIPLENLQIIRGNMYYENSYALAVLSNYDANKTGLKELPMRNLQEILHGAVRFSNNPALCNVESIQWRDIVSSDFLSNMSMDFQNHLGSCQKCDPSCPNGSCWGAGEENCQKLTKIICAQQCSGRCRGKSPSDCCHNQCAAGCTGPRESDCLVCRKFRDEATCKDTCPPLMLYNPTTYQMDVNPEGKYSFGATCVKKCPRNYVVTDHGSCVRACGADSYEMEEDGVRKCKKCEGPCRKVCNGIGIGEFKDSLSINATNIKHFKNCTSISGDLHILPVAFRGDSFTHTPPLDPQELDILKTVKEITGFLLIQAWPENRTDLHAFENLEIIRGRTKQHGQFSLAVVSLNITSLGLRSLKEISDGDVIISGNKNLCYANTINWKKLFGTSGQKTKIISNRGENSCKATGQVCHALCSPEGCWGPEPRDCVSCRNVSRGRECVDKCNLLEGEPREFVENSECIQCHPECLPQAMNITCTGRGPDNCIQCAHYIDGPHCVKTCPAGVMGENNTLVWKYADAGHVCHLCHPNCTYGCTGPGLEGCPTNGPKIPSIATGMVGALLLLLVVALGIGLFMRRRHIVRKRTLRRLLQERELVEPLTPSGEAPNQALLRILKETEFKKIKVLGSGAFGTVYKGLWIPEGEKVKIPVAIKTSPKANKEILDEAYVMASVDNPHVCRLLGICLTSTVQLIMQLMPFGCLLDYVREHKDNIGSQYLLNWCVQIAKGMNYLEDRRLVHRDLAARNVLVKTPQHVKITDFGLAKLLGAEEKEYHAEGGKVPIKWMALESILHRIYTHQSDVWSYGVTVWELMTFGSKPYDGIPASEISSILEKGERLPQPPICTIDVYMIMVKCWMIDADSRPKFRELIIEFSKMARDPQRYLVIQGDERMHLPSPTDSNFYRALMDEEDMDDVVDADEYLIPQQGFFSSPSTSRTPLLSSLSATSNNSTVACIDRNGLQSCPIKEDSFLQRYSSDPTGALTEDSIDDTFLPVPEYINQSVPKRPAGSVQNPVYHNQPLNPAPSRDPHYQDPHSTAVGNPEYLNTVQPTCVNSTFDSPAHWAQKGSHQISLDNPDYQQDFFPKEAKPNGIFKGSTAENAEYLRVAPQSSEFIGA
- experiment: pEGFR Y1068 ELISA assay, PC9-DRH cells
- Format: cell-based
- condition_label: inhibition of phosphorylation of EGFR at Tyr1068; PC9-DRH cells (dacomitinib resistant); 2 hr compound incubation
pIC50: −log10 of the molar value.
Respond with YES for pIC50 values of 8 and above, NO for values below.

C=CC(=O)N1CCC[C@@H](Oc2nc(Nc3cnn(C)c3)c3ncn(C(C)C)c3n2)C1 | NO
C=CC(=O)N[C@@H]1CN(c2nc(Nc3cnn(C)c3)c3ncn(C(C)C)c3n2)CC1(F)F | YES
C=CC(=O)N[C@H]1CCN(c2nc(Nc3ccc(N4CCN(C)CC4)cc3)c3ncn(C(C)(C)C)c3n2)C1 | NO
C=CC(=O)N[C@@H]1CN(c2nc(Nc3cnn(C)c3)c3ncn(C(C)C)c3n2)C[C@H]1OC | YES
C=CC(=O)N(C)[C@H]1C[C@H](Oc2nc(Nc3ccc(N4CCN(C)CC4)cc3)c3ncn(C(C)C)c3n2)C1 | NO
C=CC(=O)N[C@@H]1CN(c2nc(Nc3cn(C4CCN(C)C4)nc3OC)c3ncn(C)c3n2)C[C@H]1F (stereo partly shown) | YES
